system: E. coli mL308 225; assay: In Vitro Anti-Bacterial Activity Assay (MIC), gram negative; type: cell-based; details: Escherichia coli, ML308225, 18 h, gram negative bacteria; read-out: Antibiotic Activity Gram − (MIC)
Assay Metric: MIC

Consider the worked cases shown below.
1) CCOC(=O)Nc1cc(N(C)C)c2c(c1O)C(=O)C1=C(O)[C@]3(O)C(=O)C(C(N)=O)=C(O)[C@@H](N(C)C)[C@@H]3C[C@@H]1C2 [drawing 3362] = < 4 µg/mL
2) CN(C)[C@@H]1C(O)=C(C(N)=O)C(=O)[C@@]2(O)C(O)=C3C(=O)c4c(O)ccc(-c5ccncc5F)c4C[C@H]3C[C@@H]12 = < 4 µg/mL

# query: MIC of entry `COc1ccc(-c2ccc3c(c2O)C(=O)C2=C(O)[C@]4(O)C(=O)C(C(N)=O)=C(O)[C@@H](N(C)C)[C@@H]4[C@@H](O)[C@@H]2[C@H]3C)cc1CC1CCCC1`
> 4 µg/mL

Requested read-out: MIC. Entry: `CN(C)[C@@H]1C(O)=C(C(N)=O)C(=O)[C@@]2(O)C(O)=C3C(=O)c4c(O)ccc(CNC(=O)c5ccccn5)c4C[C@H]3C[C@@H]12`
> 4 µg/mL

Consider the compound shown here: `C[C@H]1c2c(N)cc(I)c(O)c2C(=O)C2=C(O)[C@]3(O)C(=O)C(C(N)=O)=C(O)[C@@H](N(C)C)[C@@H]3[C@@H](O)[C@@H]21` What is its recorded MIC?
> 4 µg/mL

What value of MIC has been recorded for this entry: `CC(C)CNC(=O)Nc1ccc(-c2ccc(O)c3c2C[C@H]2C[C@H]4[C@H](N(C)C)C(O)=C(C(N)=O)C(=O)[C@@]4(O)C(O)=C2C3=O)cc1`
< 4 µg/mL

---

# MIC annotations
test system: E. coli mL308 225; assay: In Vitro Anti-Bacterial Activity Assay (MIC), gram negative; type: cell-based; conditions: Escherichia coli, ML308225, 18 h, gram negative bacteria; read-out: Antibiotic Activity Gram − (MIC)

1) C[C@H]1c2ccc(NC3CC(C)(C)NC(C)(C)C3)c(O)c2C(=O)C2=C(O)[C@]3(O)C(=O)C(C(N)=O)=C(O)[C@@H](N(C)C)[C@@H]3[C@@H](O)[C@@H]21 = > 4 µg/mL

Tell me the measured MIC of `CN(C)c1cc(CO)c(O)c2c1C[C@H]1C[C@H]3[C@H](N(C)C)C(O)=C(C(N)=O)C(=O)[C@@]3(O)C(O)=C1C2=O` , please.
> 4 µg/mL

Given CN(C)CCC(=O)c1ccc(O)c2c1C[C@H]1C[C@H]3[C@H](N(C)C)C(O)=C(C(N)=O)C(=O)[C@@]3(O)C(O)=C1C2=O [drawing 3401] , state its recorded MIC.
> 4 µg/mL

Query: MIC; subject: `CN(C)[C@@H]1C(O)=C(C(N)=O)C(=O)[C@@]2(O)C(O)=C3C(=O)c4c(O)ccc(CNCc5ccccc5)c4C[C@H]3C[C@@H]12`
< 4 µg/mL

Given `CC(=O)NCc1cc(N(C)C)c2c(c1O)C(=O)C1=C(O)[C@]3(O)C(=O)C(C(N)=O)=C(O)[C@@H](N(C)C)[C@@H]3C[C@@H]1C2` , state its recorded MIC.
> 4 µg/mL

If you can, please state the reported MIC value of `CN(C)[C@@H]1C(O)=C(C(N)=O)C(=O)[C@@]2(O)C(O)=C3C(=O)c4c(O)c(C(C)(C)C)cc(-c5cnc6ccccc6c5)c4C[C@H]3C[C@@H]12` .
> 4 µg/mL

---

system: S. aureus RN450; test: In Vitro Anti-Bacterial Activity Assay (MIC), gram positive; assay type: cell-based; details: Staphylococcus aureus, RN450, 18 h, gram positive bacteria; read-out: Antibiotic Activity Gram + (MIC)
Listing of recorded MIC by entry.

Returns the measured MIC for the input compound. Input: `Cc1noc(C)c1S(=O)(=O)NCc1cc(N(C)C)c2c(c1O)C(=O)C1=C(O)[C@]3(O)C(=O)C(C(N)=O)=C(O)[C@@H](N(C)C)[C@@H]3C[C@@H]1C2`
< 4 µg/mL

Requested read-out: MIC. Entry: `CN(C)[C@@H]1C(O)=C(C(N)=O)C(=O)[C@@]2(O)C(O)=C3C(=O)c4c(O)ccc(-c5ccc(CNCc6cccc(Cl)c6)cc5)c4C[C@H]3C[C@@H]12`
< 4 µg/mL

I'd like to know its MIC. The compound in question is `CCOC(=O)CNCc1ccc(OC)c(-c2ccc(O)c3c2C[C@H]2C[C@H]4[C@H](N(C)C)C(O)=C(C(N)=O)C(=O)[C@@]4(O)C(O)=C2C3=O)c1`
< 4 µg/mL

Look up MIC: `COCc1ccc(O)c2c1C[C@H]1C[C@H]3[C@H](N(C)C)C(O)=C(C(N)=O)C(=O)[C@@]3(O)C(O)=C1C2=O`
< 4 µg/mL

Field request: MIC | item: `CN(C)[C@@H]1C(O)=C(C(N)=O)C(=O)[C@@]2(O)C(O)=C3C(=O)c4c(O)c(CNC(=O)C5CC5)cc(-c5ccc(C(C)(C)C)cc5)c4C[C@H]3C[C@@H]12`
< 4 µg/mL

Given `CN(C)c1cc(CNCc2cccn2C)c(O)c2c1C[C@H]1C[C@H]3[C@H](N(C)C)C(O)=C(C(N)=O)C(=O)[C@@]3(O)C(O)=C1C2=O` , state its recorded MIC.
< 4 µg/mL

Need MIC of `COC(=O)CCC(=O)Nc1ccc(-c2ccc(O)c3c2C[C@H]2C[C@H]4[C@H](N(C)C)C(O)=C(C(N)=O)C(=O)[C@@]4(O)C(O)=C2C3=O)cc1` , thanks.
< 4 µg/mL

Data request, read-out MIC, for `CN(C)[C@@H]1C(O)=C(C(N)=O)C(=O)[C@@]2(O)C(O)=C3C(=O)c4c(O)ccc(Cl)c4[C@](C)(O)[C@H]3C[C@@H]12`
< 4 µg/mL

What measured MIC goes with `CN(C)c1cc(C#CC(=O)O)c(O)c2c1C[C@H]1C[C@H]3[C@H](N(C)C)C(O)=C(C(N)=O)C(=O)[C@@]3(O)C(O)=C1C2=O` ?
> 4 µg/mL

---

system: S. aureus RN450; experiment: In Vitro Anti-Bacterial Activity Assay (MIC), gram positive; format: cell-based; conditions: Staphylococcus aureus, RN450, 18 h, gram positive bacteria; read-out: Antibiotic Activity Gram + (MIC)
Assay Metric: MIC

1. CN(C)c1cc(CNOC(C)(C)C)c(O)c2c1C[C@H]1C[C@H]3[C@H](N(C)C)C(O)=C(C(N)=O)C(=O)[C@@]3(O)C(O)=C1C2=O = < 4 µg/mL

Which measured MIC value corresponds to `CN(C)c1cc(CNCc2ccc(C#N)cc2)c(O)c2c1C[C@H]1C[C@H]3[C@H](N(C)C)C(O)=C(C(N)=O)C(=O)[C@@]3(O)C(O)=C1C2=O` ?
< 4 µg/mL

For the compound `CN(C)c1cc(CNC(=O)Nc2ccc3c(c2)OCO3)c(O)c2c1C[C@H]1C[C@H]3[C@H](N(C)C)C(O)=C(C(N)=O)C(=O)[C@@]3(O)C(O)=C1C2=O` , what MIC is on record?
< 4 µg/mL

Please give the measured MIC for this compound: `CN(C)c1cc(-c2ccc(CN3CCN(c4ccccc4F)CC3)o2)c(O)c2c1C[C@H]1C[C@H]3[C@H](N(C)C)C(O)=C(C(N)=O)C(=O)[C@@]3(O)C(O)=C1C2=O`
> 4 µg/mL

Request the reported MIC associated with CC(C)CNCc1cc(N(C)C)c2c(c1O)C(=O)C1=C(O)[C@]3(O)C(=O)C(C(N)=O)=C(O)[C@@H](N(C)C)[C@@H]3C[C@@H]1C2 [drawing 3469]
< 4 µg/mL

Which MIC reading was recorded for the compound `CCCCOc1cccc2c1C(=O)C1=C(O)[C@]3(O)C(=O)C(C(N)=O)=C(O)[C@@H](N(C)C)[C@@H]3[C@@H](O)[C@@H]1[C@H]2C` ?
> 4 µg/mL

Sample `CC(=O)Nc1cc(-c2ccccn2)c2c(c1O)C(=O)C1=C(O)[C@]3(O)C(=O)C(C(N)=O)=C(O)[C@@H](N(C)C)[C@@H]3C[C@@H]1C2` — what was its MIC?
< 4 µg/mL

Query (compound): CN(C)[C@@H]1C(O)=C(C(N)=O)C(=O)[C@@]2(O)C(O)=C3C(=O)c4c(O)ccc(-c5ccc(C(C)(C)C)cc5)c4C[C@H]3C[C@@H]12 [drawing 3426] ; field requested: MIC
< 4 µg/mL

Need MIC, item `CN(C)[C@@H]1C(O)=C(C(N)=O)C(=O)[C@@]2(O)C(O)=C3C(=O)c4c(O)ccc(C#CCO)c4C[C@H]3C[C@@H]12`
< 4 µg/mL

Look up MIC: `CC(C)Cc1ccc(O)c2c1C[C@H]1C[C@H]3[C@H](N(C)C)C(O)=C(C(N)=O)C(=O)[C@@]3(O)C(O)=C1C2=O`
< 4 µg/mL

Using the record for `CCCC/C(Cl)=C/c1ccc(O)c2c1C[C@H]1C[C@H]3[C@H](N(C)C)C(O)=C(C(N)=O)C(=O)[C@@]3(O)C(O)=C1C2=O` , report its MIC.
< 4 µg/mL

Name the reported MIC value associated with the compound `CCc1cc(-c2ccc(N(C)C)cc2)c2c(c1O)C(=O)C1=C(O)[C@]3(O)C(=O)C(C(N)=O)=C(O)[C@@H](N(C)C)[C@@H]3C[C@@H]1C2`
< 4 µg/mL
